# tested system: T1, human serum albumin (human, UniProt P02768 25-609)
# T1 construct: Negative control of the ELISA; also called HSA
# T1 sequence (P02768 25-609 limits assumed): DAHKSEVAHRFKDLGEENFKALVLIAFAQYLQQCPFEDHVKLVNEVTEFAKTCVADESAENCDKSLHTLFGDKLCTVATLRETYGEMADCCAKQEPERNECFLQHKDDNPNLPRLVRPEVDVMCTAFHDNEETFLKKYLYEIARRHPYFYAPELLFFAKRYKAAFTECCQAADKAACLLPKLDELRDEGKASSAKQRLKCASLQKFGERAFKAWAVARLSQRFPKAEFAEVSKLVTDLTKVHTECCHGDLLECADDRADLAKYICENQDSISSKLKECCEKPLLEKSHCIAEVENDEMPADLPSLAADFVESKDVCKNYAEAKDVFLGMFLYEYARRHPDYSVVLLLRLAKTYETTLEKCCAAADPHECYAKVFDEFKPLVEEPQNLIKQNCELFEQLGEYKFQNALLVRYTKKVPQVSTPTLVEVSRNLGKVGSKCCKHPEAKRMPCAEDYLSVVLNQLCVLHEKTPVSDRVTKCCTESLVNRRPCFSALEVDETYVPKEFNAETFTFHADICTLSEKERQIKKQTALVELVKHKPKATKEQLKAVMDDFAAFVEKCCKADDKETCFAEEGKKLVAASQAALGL
# assay summary: ELISA, negative control HSA
# Procedure: Streptavidin-coated Maxisorp plates (Nunc catalog 436110) were blocked for 1 h in Starting Block T20 (Pierce) and then coated with biotinylated CD137 (using same antigen as in panning) or negative controls (an unrelated Fc-fused recombinant protein and human serum albumin) for 1 h. Plates were rinsed with TBST and diluted lysate was applied to plates for 1 h. […]
For each record, write down the corresponding ELISA HSA (RLU).
Enter your answer as a number in RLU; do not include the unit.

I have this binder here, ISOP193AR9P1F9 (designed binder, not shown: small tags and cut ends) LPAPKNLVVSRVTEDSARLSWPLFASDLNIFDSFLIQYQESEKVGEAIVLTVPGSERSYDLTGLKPGTEYTVSIYGVGRHYTVYDSNPLSAIFTT , and I need its recorded ELISA HSA (RLU).
560

Likewise for ISOP193BR9P1E6 (designed binder, not shown: small tags and cut ends) LPAPKNLVVSRVTEDSARLSWGAITALFDSFLIQYQESEKVGEAIVLTVPGSERSYDLTGLKPGTEYTVSIYGVKFPYYYATADSNPLSAIFTT ?
560

Likewise for ISOP193BR9P1G11 (designed binder, not shown: small tags and cut ends) LPAPKNLVVSRVTEDSARLSWAGHYRKIRNFDSFLIQYQESEKVGEAIVLTVPGSERSYDLTGLKPGTEYTVSIYGVKFPYYYATADSNPLSAIFTT ?
9600

Likewise for ISOP193AR9P1G8 (designed binder, not shown: small tags and cut ends) LPAPKNLVVSRVTEDSARLSWHATFGDPFDSFLIQYQESEKVGEAIVLTVPGSERSYDLTGLKPGTEYTVSIYGVGRHYTVYDSNPLSAIFTT ?
720

Likewise for ISOP193HR9P1F10 (designed binder, not shown: small tags and cut ends) LPAPKNLVVSRVTEDSARLSWTAPDAAFDSFDIYYYELRLGGEAIVLTVPGSERSYDLTGLKPGTEYLVTIYGVKGGYYSGPLSAIFTT ?
960

Likewise for ISOP193HR9P1G10 (designed binder, not shown: small tags and cut ends) LPAPKNLVVSRVTEDSARLSWTAPDAAFDSFEIYYFELRLGGEAIVLTVPGSERSYDLTGLKPGTEYLVTIYGVKGGDYSPPLSAISTT ?
800

Likewise for ISOP193BR9P1H2 (designed binder, not shown: small tags and cut ends) LPAPKNLVVSRVTEDSARLSWPDESRPVRFDSFLIQYQESEKVGEAIVLTVPGSERSYDLTGLKPGTEYTVSIYGVHTRDWTAWNASNPLSAIFTT ?
3280

Likewise for ISOP193FR9P1D1 (designed binder, not shown: small tags and cut ends) LPAPKNLVVSRVTEDSARLSWTAPDAAFDSFFIQYLEDVTNGEAIVLTVPGSERSYDLTGLKPGTEYRVPIAGVKGGRDSQPLSAIFTT ?
640
